All values here come from ChEMBL document CHEMBL1158416.

# System: U-937
# assay procedure: Antiproliferative activity against human U937 cells after 48 hrs by MTT assay
# Format: functional, cell-based
# condition: U-937, 48 h
endpoint name: IC50 (µg/mL)

As a guide, the following entries are already answered.
| smiles | test value |
| --- | --- |
| Oc1ccc(CC[C@@H](O)C[C@@H](O)CCc2ccccc2)cc1 | 33 |
| Oc1ccc(CC[C@H](O)C[C@@H](O)CCc2ccccc2)cc1 | 31.1 |
| COc1cc(CC[C@H](O)C[C@@H](O)CCc2ccccc2)ccc1O | 27.7 |

1 = COc1cc(CC[C@@H](O)C[C@@H](O)CCc2ccccc2)ccc1O
2 = O[C@@H](CCc1ccccc1)C[C@@H](O)CCc1ccccc1
3 = O[C@H](CCc1ccccc1)C[C@@H](O)CCc1ccccc1
Q. Arrange the 3 entries by IC50 so the values rise. Please write the labels in the order that was asked for.
A. 1, 2, 3
(1: 32.7 µg/mL, 2: 128 µg/mL, 3: 188 µg/mL)
